- Experimental Protocol: Plasma pharmacokinetics of ENT-03S cyclodextrin formulation after subcutaneous injection
- Format: in vivo, rat
- Assay Setup: male, Sprague-Dawley, rat, plasma, sc, 10 mg/kg, 20% beta-cyclodextrin formulation; SC Dose 10 mg/kg; male SD rats; plasma; mean; read-out: AUClnf Mean
Experimental Endpoint: AUC

Exam item: Give the reported AUC for this molecule. C[C@H](CCC[C@H](C)C(=O)O)[C@H]1CCC2C3C(CC[C@@]21C)[C@@]1(C)CC[C@H](NCCCNCCCCNCCCN)C[C@@H]1C[C@H]3O (stereo partly drawn) [ENT-03S]
Marked response: 920 µg·h/mL

###

- Experimental Protocol: Plasma pharmacokinetics of aqueous ENT-03S solution without cyclodextrin after subcutaneous injection
- Format: in vivo, rat
- Assay Setup: male, Sprague-Dawley, rat, plasma, sc, 10 mg/kg, 2 mg/ml, 10 mg/kg SC, male SD rats, individual rats, read-out: Cmax
Experimental Endpoint: Cmax (ng/mL)
Entry rule: numbers only, all in ng/mL.

Exam item: Give the reported Cmax for this compound. C[C@H](CCC[C@H](C)C(=O)O)[C@H]1CCC2C3C(CC[C@@]21C)[C@@]1(C)CC[C@H](NCCCNCCCCNCCCN)C[C@@H]1C[C@H]3O (stereo partly drawn) [ENT-03S]
Marked response: 43300

###

- Experimental Protocol: Plasma pharmacokinetics of ENT-03S cyclodextrin formulation after subcutaneous injection
- Assay type: in vivo, rat
- Assay Setup: male, Sprague-Dawley, rat, plasma, sc, 10 mg/kg, 20% beta-cyclodextrin formulation; 10 mg/kg SC; male SD rats; 0.5 h; mean; read-out: Concentration Mean
- Procedure: In this example, ENT-03S was formulated with unmodified beta-cyclodextrin at a concentration of 25 mg/ml ENT-03, and 20% beta-cyclodextrin, pH 7.5, buffered with phosphate. Male Sprague-Dawley rats were administered the ENT-03-cyclodextrin formulation subcutaneous at a dose of 10 mg/kg. Blood samples were drawn from the tail vein at various times, the concentrations of ENT-03 determined, and PK parameters determined.
Experimental Endpoint: concentration at 0.5 h (ng/mL)
Entry rule: numbers only, all in ng/mL.

Exam item: Give the reported concentration at 0.5 h for this molecule. C[C@H](CCC[C@H](C)C(=O)O)[C@H]1CCC2C3C(CC[C@@]21C)[C@@]1(C)CC[C@H](NCCCNCCCCNCCCN)C[C@@H]1C[C@H]3O (stereo partly drawn) [ENT-03S]
Marked response: 27700

###

- Experimental Protocol: Plasma pharmacokinetics of aqueous ENT-03S solution without cyclodextrin after subcutaneous injection
- Format: in vivo, rat
- Assay Setup: male, Sprague-Dawley, rat, plasma, sc, 10 mg/kg, 2 mg/ml, 10 mg/kg SC, male SD rats, 4 h, individual rats, read-out: Concentration (ng/ml) Rat 1-3
Experimental Endpoint: concentration at 4 h (ng/mL)
Entry rule: numbers only, all in ng/mL.

Exam item: Give the reported concentration at 4 h for this compound. C[C@H](CCC[C@H](C)C(=O)O)[C@H]1CCC2C3C(CC[C@@]21C)[C@@]1(C)CC[C@H](NCCCNCCCCNCCCN)C[C@@H]1C[C@H]3O (stereo partly drawn) [ENT-03S]
Marked response: 14100

###

- Experimental Protocol: Plasma pharmacokinetics of ENT-03S cyclodextrin formulation after subcutaneous injection
- Assay type: in vivo, rat
- Assay Setup: male, Sprague-Dawley, rat, plasma, sc, 10 mg/kg, 20% beta-cyclodextrin formulation; 10 mg/kg SC; male SD rats; 8 h; mean; read-out: Concentration Mean
Experimental Endpoint: concentration at 8 h (ng/mL)
Entry rule: numbers only, all in ng/mL.

Exam item: Give the reported concentration at 8 h for this molecule. C[C@H](CCC[C@H](C)C(=O)O)[C@H]1CCC2C3C(CC[C@@]21C)[C@@]1(C)CC[C@H](NCCCNCCCCNCCCN)C[C@@H]1C[C@H]3O (stereo partly drawn) [ENT-03S]
Marked response: 23600
